targetUnderTest: eqBuChE (Equus caballus, UniProt P81908)
Construct: equine serum butyrylcholinesterase (eqBuChE); purchased Sigma-Aldrich (lyophilized powder, 10.9 U/mg); host or cells: equine serum
Sequence (P81908 whole entry): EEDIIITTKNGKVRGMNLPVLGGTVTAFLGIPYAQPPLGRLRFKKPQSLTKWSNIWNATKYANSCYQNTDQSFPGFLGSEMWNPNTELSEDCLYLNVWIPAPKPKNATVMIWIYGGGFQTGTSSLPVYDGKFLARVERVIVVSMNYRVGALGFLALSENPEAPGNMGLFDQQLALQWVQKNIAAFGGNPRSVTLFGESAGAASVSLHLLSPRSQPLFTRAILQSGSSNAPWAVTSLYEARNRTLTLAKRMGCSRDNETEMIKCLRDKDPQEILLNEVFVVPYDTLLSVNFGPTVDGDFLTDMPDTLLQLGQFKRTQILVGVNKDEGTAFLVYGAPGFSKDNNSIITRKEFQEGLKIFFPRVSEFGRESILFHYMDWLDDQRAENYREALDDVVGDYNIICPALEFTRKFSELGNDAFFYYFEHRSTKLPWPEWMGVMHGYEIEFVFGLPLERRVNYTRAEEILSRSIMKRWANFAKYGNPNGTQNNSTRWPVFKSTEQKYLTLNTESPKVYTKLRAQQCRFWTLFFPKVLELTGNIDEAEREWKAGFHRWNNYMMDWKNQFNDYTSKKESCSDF
assayOverview: Ellman cholinesterase inhibitory assay, eqBuChE (screening and IC50)
Assay type: biochemical
details: compound 100 µM; substrate 3 mM
Each entry gets not satisfied if its inhibition at 100 µM stays under 50%, and satisfied if its inhibition at 100 µM is 50% or above.

INSERT INTO results (molecularstring, targetundertest, group) VALUES
  ('O=c1c(OCCCCn2cc(C3CC3)nn2)c(-c2ccc(O)c(O)c2)oc2cc(O)cc(O)c12', 'eqBuChE (Equus caballus, UniProt P81908)', 'satisfied'),
  ('O=C1C(=O)N(Cc2cn(CCCCOc3c(-c4ccc(OCc5ccccc5)c(OCc5ccccc5)c4)oc4cc(OCc5ccccc5)cc(OCc5ccccc5)c4c3=O)nn2)c2ccccc21', 'eqBuChE (Equus caballus, UniProt P81908)', 'not satisfied');

hey, is inhibition at 100 µM for this one >= 50%? COc1cc(OC)c2c(=O)c(OCc3cn(Cc4ccccc4)nn3)c(-c3ccc(OC)c(OC)c3)oc2c1
satisfied

hey, is inhibition at 100 µM for this one >= 50%? COc1cc(OC)c2c(=O)c(OCCCCn3cc(C(C)(C)O)nn3)c(-c3ccc(OC)c(OC)c3)oc2c1
satisfied

hey, is inhibition at 100 µM for this one >= 50%? CC(C)(O)c1cn(CCCCOc2c(-c3ccc(OCc4ccccc4)c(OCc4ccccc4)c3)oc3cc(OCc4ccccc4)cc(OCc4ccccc4)c3c2=O)nn1
not satisfied

hey, is inhibition at 100 µM for this one >= 50%? CCCc1cn(CCCCOc2c(-c3ccc(OC)c(OC)c3)oc3cc(OC)cc(OC)c3c2=O)nn1
not satisfied

hey, is inhibition at 100 µM for this one >= 50%? O=c1c(O)c(-c2ccc(O)c(O)c2)oc2cc(O)cc(O)c12
satisfied

Reference for the values: paper PMC10673615
